Catalogue of log10 of LD50 values
- test: rat acute oral toxicity
- test parameters: in vivo
Reminder: these figures are log10 of reported LD50, in mg/kg before transformation.

Tell me its log10 of LD50 given `O=C1C=CC(=O)N1c1ccccc1` as the entry.
2.11

Tell me its log10 of LD50 given `Cc1ccc([N+](=O)[O-])cc1` as the entry.
3.31

Tell me its log10 of LD50 given `O=P(OCCCl)(OCCCl)OCCCl` as the entry.
2.67

Tell me its log10 of LD50 given `Oc1ccc(O)cc1` as the entry.
2.48

Tell me its log10 of LD50 given CCNP(=S)(OC)O/C(C)=C/C(=O)OC(C)C (configuration not stated) as the entry.
1.77

Tell me its log10 of LD50 given `O=C1NS(=O)(=O)c2ccccc21` as the entry.
3.95

Tell me its log10 of LD50 given `C=C(C)C(=O)OCCO` as the entry.
3.70

Tell me its log10 of LD50 given `C=C(C)C(N)=O` as the entry.
3.22

Tell me its log10 of LD50 given `OCCc1ccccn1` as the entry.
3.58

Tell me its log10 of LD50 given `O=C(NCc1cccnc1)Nc1ccc([N+](=O)[O-])cc1` as the entry.
0.68

Tell me its log10 of LD50 given `Nc1nc[nH]n1` as the entry.
3.04

Tell me its log10 of LD50 given `CSc1ccc(C(=O)C(C)(C)N2CCOCC2)cc1` as the entry.
3.16

###

- test: rat acute oral toxicity
- test parameters: in vivo
quantity measured: log10(LD50) (log10 of the value in mg/kg)
Reminder: these figures are log10 of reported LD50, in mg/kg before transformation.

>  <compound>
CC[C@H]1OC(=O)C[C@@H](O)[C@H](C)[C@@H](O[C@@H]2O[C@H](C)[C@@H](O)[C@H](N(C)C)[C@H]2O)[C@@H](CCN2C[C@H](C)C[C@H](C)C2)C[C@@H](C)C(=O)C=CC(C)=C[C@@H]1CO[C@@H]1O[C@H](C)[C@@H](O)[C@@H](OC)[C@H]1OC

>  <log10(LD50)>
2.90

$$$$

Tell me its log10(LD50) given `Cc1ccc2nc3sc(=O)sc3nc2c1` as the entry.
3.04

Tell me its log10(LD50) given `C=CC(=O)OCCO` as the entry.
2.74

Tell me its log10(LD50) given `CCN(C(=O)N(CC)c1ccccc1)c1ccccc1` as the entry.
2.89

Tell me its log10(LD50) given `C/C=C(/C)C(=O)O[C@H]1CCN2CC=C(COC(=O)[C@](O)([C@H](C)OC)C(C)(C)O)[C@H]12` as the entry.
2.04

Tell me its log10(LD50) given CCCCC(CC)COC(=O)c1ccccc1 (centres undefined) as the entry.
3.40

Tell me its log10(LD50) given `Cc1nc(N(C)C)nc(OC(=O)N(C)C)c1C` as the entry.
2.00

###

- test: rat acute oral toxicity
- test parameters: in vivo
Sorting guide: entries reporting LD50 beneath 800 mg/kg go in the 1 (yes) pile, the rest go in the 0 (no) pile.

For orientation, consider the following solved cases.
>  <smiles string>
CCCCOCCOC(=O)COc1ccc(Cl)cc1Cl

>  <cat>
0 (no)

$$$$
>  <smiles string>
C[N+](C)(C)CCO

>  <cat>
0 (no)

$$$$
>  <smiles string>
CN=C=O

>  <cat>
1 (yes)

$$$$
>  <smiles string>
CC(C)(C)CC(C)(C)N

>  <cat>
1 (yes)

$$$$
>  <smiles string>
OCCOCCO

>  <cat>
0 (no)

$$$$

Threshold test, LD50 < 800 mg/kg: `Cc1ccc(N)cc1Cl`
1 (yes)

Threshold test, LD50 < 800 mg/kg: `CNc1ccccc1`
1 (yes)

Threshold test, LD50 < 800 mg/kg: `COc1c(Cl)ccc(Cl)c1C(=O)O`
1 (yes)

Threshold test, LD50 < 800 mg/kg: `O=C(O)c1ccc(C(=O)O)cc1`
0 (no)

###

Catalogue of GHS category values
- test: GHS categories as the set defines them, by LD50: 1 up to 5, 2 up to 50, 3 up to 300, 4 up to 2000, 5 above 2000 mg/kg
- test parameters: rat; in vivo; po
Quick one: just the number, no unit, thanks!

Illustrative cases are given below, each with its answer.
>  <compound>
O=NNC1=NCCN1Cc1ccc(Cl)nc1

>  <recorded result>
5

$$$$
>  <compound>
O=C(Nc1ccc(Cl)c(Cl)c1)c1cc(Cl)cc(-c2ccccc2)c1O

>  <recorded result>
4

$$$$

Tell me its GHS category given `O=[N+]([O-])c1c(Cl)cccc1-c1c[nH]cc1Cl` as the entry.
5

###

Catalogue of GHS category values
- test: GHS categories as the set defines them, by LD50: 1 up to 5, 2 up to 50, 3 up to 300, 4 up to 2000, 5 above 2000 mg/kg
- test parameters: rat; in vivo; po
Quick one: just the number, no unit, thanks!

>  <compound>
CCCOc1ccc(Cl)c2c(=O)c3ccccc3sc12

>  <GHS category>
5

$$$$
>  <compound>
CCCCCCCCCCCOC(=O)c1ccccc1C(=O)OCCCCCCCCCCC

>  <GHS category>
5

$$$$

Tell me its GHS category given `CCOC(=O)C(Cl)C(=O)OCC` as the entry.
4

Tell me its GHS category given Nc1nc(=O)c2c([nH]1)NCC(CNc1ccc(C(=O)N[C@@H](CCC(=O)O)C(=O)O)cc1)N2C=O (some centres undefined) as the entry.
5

Tell me its GHS category given CCOC(=O)N(C)C1CCCN(c2nc(N)c3cc(OC)c(OC)cc3n2)C1 (centres undefined) as the entry.
4

Tell me its GHS category given `C=C(C)C(=O)O[Si](C(C)C)(C(C)C)C(C)C` as the entry.
5

Tell me its GHS category given CCC1(c2ccccc2O)NC(=O)NC1=O (centres undefined) as the entry.
5

Tell me its GHS category given `Nc1nc(=O)c(Br)c(-c2ccccc2)[nH]1` as the entry.
5

Tell me its GHS category given `C=CC(=O)OCCCCCC(C)C` as the entry.
5

Tell me its GHS category given `c1ccc([I+]c2ccccc2)cc1` as the entry.
4

Tell me its GHS category given `C=CCOC(=O)Nc1nc(N2CC=CCC2)cc2nc(=O)on12` as the entry.
5

Tell me its GHS category given `COc1ccc(N)cc1N` as the entry.
5

Tell me its GHS category given `Cc1cc(C)c(S(=O)(=O)O)cc1N=Nc1cc(S(=O)(=O)O)c2ccccc2c1O` as the entry.
5

Tell me its GHS category given O=C(NCC(O)CCl)c1ccc([N+](=O)[O-])cc1 (centres undefined) as the entry.
3

Tell me its GHS category given CC(O)COC(=O)c1c(Br)c(Br)c(Br)c(Br)c1C(=O)OCCOCCO (centres undefined) as the entry.
5

###

Catalogue of log10 of LD50 values
- test: rat acute oral toxicity
- test parameters: in vivo
Reminder: these figures are log10 of reported LD50, in mg/kg before transformation.

Illustrative cases are given below, each with its answer.
>  <compound>
CC(O)COC(C)CO (stereo not drawn)

>  <log10 of LD50>
3.36

$$$$
>  <compound>
CNC(=O)Oc1cc(C)cc(C)c1

>  <log10 of LD50>
2.39

$$$$
>  <compound>
CNC(=O)Oc1cccc2c1OC(C)(C)C2

>  <log10 of LD50>
0.71

$$$$
>  <compound>
CCOC(=O)c1cn2nc(OP(=S)(OCC)OCC)cc2nc1C

>  <log10 of LD50>
2.18

$$$$
>  <compound>
COCCOCCO

>  <log10 of LD50>
3.74

$$$$
>  <compound>
CC(C)N(C(=O)CCl)c1ccccc1

>  <log10 of LD50>
2.85

$$$$
>  <compound>
C=C(C)C(=O)OCCN(C)C

>  <log10 of LD50>
2.66

$$$$
>  <compound>
CCCCCC(=O)O

>  <log10 of LD50>
3.48

$$$$

Tell me its log10 of LD50 given `N#CCNC(=O)c1cnccc1C(F)(F)F` as the entry.
2.95

Tell me its log10 of LD50 given `S=C=S` as the entry.
3.08

Tell me its log10 of LD50 given `CC(C)(C)OOC1(OOC(C)(C)C)CCCCC1` as the entry.
4.12

###

- test: GHS categories as the set defines them, by LD50: 1 up to 5, 2 up to 50, 3 up to 300, 4 up to 2000, 5 above 2000 mg/kg
- test parameters: rat; in vivo; po
quantity measured: GHS category
Quick one: just the number, no unit, thanks!

>  <molecule>
CN(C)CC(=O)N/N=C/c1c(Cl)nc2n1CCS2

>  <recorded result>
4

$$$$
>  <molecule>
CC(=O)Nc1ccc(S(=O)(=O)Cl)cc1

>  <recorded result>
5

$$$$

As a next step, examine the molecule that follows.
Tell me its GHS category given `O=c1nc2nc[nH]n2c(COCc2ccccc2)c1Cc1ccc(-c2ccccc2-c2nn[nH]n2)cc1` as the entry.
4
